pIC50 values by entry
# Target Under Test: Integrin alpha-IIb/beta-3 (Homo sapiens, UniProt P05106+P08514)
# Sequence (P05106 27-788 limits assumed): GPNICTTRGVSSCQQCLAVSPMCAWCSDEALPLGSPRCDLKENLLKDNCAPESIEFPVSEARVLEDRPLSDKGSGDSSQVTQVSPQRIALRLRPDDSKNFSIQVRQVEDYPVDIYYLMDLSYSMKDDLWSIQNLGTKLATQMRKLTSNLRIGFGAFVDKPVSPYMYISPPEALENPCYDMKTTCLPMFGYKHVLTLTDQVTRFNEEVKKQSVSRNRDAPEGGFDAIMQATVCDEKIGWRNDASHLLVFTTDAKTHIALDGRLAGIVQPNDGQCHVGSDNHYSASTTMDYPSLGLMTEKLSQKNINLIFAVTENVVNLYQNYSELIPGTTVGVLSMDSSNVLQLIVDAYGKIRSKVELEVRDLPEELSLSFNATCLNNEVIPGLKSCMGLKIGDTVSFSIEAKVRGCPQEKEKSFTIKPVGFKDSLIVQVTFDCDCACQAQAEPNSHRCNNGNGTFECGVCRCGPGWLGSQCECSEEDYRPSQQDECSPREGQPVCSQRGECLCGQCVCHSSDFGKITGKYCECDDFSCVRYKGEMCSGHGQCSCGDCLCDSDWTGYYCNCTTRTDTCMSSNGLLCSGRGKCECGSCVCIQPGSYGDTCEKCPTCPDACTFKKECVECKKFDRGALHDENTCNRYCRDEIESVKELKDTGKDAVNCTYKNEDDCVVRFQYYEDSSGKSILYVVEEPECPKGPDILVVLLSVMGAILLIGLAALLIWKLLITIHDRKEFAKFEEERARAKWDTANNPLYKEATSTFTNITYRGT
# Sequence (P08514 32-887 limits assumed): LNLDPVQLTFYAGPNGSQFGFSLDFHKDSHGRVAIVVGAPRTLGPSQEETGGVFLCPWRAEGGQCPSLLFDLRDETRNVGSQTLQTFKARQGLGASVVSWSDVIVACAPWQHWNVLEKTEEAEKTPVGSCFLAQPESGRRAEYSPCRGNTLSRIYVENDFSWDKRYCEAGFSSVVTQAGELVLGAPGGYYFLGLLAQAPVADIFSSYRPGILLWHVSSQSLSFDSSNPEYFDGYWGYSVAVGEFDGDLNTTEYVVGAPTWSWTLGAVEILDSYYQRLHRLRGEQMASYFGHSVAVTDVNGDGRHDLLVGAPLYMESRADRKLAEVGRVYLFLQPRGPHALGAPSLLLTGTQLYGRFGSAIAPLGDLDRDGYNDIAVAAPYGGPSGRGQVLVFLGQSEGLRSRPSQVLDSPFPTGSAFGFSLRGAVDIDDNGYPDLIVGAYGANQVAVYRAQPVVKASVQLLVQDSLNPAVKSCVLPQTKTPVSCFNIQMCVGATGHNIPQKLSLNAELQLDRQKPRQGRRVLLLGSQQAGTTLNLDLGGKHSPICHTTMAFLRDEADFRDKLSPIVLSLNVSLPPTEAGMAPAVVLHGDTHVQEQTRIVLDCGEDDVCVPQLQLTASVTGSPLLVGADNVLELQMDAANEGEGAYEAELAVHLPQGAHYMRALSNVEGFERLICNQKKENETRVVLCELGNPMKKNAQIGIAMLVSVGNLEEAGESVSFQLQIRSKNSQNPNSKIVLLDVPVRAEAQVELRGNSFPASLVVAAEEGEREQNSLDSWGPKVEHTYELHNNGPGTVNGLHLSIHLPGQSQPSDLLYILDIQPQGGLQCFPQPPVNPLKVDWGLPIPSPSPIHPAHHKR
# Sequence (P08514 891-1039 limits assumed): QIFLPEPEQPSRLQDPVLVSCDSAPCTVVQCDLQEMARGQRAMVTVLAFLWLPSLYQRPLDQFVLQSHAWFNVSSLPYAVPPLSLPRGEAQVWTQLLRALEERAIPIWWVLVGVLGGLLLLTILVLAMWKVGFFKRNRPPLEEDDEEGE
# Assay Comment: Inhibitory activity against alpha IIb beta 3 integrin
pIC50: −log10 of the molar value.
Value Type: pIC50

{"Molecule": "N=C(N)Nc1cccc(C(=O)NNC(=O)NC(CC(=O)O)c2ccc(Cl)cc2)c1 (stereo not drawn)", "Meas Value": 5.26}
{"Molecule": "Cc1ccnc(NCCCCC(=O)NNC(=O)NC(CC(=O)O)c2ccccc2)c1 (stereo not drawn)", "Meas Value": "< 5.00"}
{"Molecule": "Cc1ccnc(NCCCCC(=O)NNC(=O)CC(CC(=O)O)c2cc(Cl)cc(Cl)c2)c1 (stereo not drawn)", "Meas Value": "< 5.00"}
{"Molecule": "N=C(N)Nc1cccc(C(=O)NNC(=O)CC(CC(=O)O)c2cc(Cl)cc(Cl)c2)c1 (stereo not drawn)", "Meas Value": 6.00}
{"Molecule": "N=C(N)NCCCCC(=O)NNC(=O)NC(CC(=O)O)c1ccccc1 (stereo not drawn)", "Meas Value": 6.00}
{"Molecule": "N=C(N)Nc1cccc(C(=O)NNC(=O)NC(CC(=O)O)c2ccc(Br)cc2)c1 (stereo not drawn)", "Meas Value": "< 6.00"}
{"Molecule": "N=C(N)Nc1cccc(C(=O)NNC(=O)NC(CC(=O)O)c2ccccc2)c1 (stereo not drawn)", "Meas Value": 5.07}
{"Molecule": "N=C(N)Nc1cccc(C(=O)NNC(=O)CC(CC(=O)O)c2ccc(-c3ccccc3)cc2)c1 (stereo not drawn)", "Meas Value": 6.00}
{"Molecule": "COc1ccc(C(CC(=O)O)CC(=O)NNC(=O)c2cccc(N=C(C)N)c2)cc1 (stereo not drawn)", "Meas Value": "< 6.00"}
{"Molecule": "NC(N)=Nc1cccc(C(=O)NNC(=O)NC(CC(=O)O)c2ccc(F)cc2)c1 (stereo not drawn)", "Meas Value": 6.00}
{"Molecule": "N=C(N)Nc1cccc(C(=O)NNC(=O)NC(CC(=O)O)c2ccc(OC(F)(F)F)cc2)c1 (stereo not drawn)", "Meas Value": "< 6.00"}
{"Molecule": "CC(=N)Nc1cccc(C(=O)NNC(=O)CC(CC(=O)O)c2ccc(-c3ccccc3)cc2)c1 (stereo not drawn)", "Meas Value": "< 6.00"}
{"Molecule": "CC(N)=Nc1cccc(C(=O)NNC(=O)CC(CC(=O)O)c2ccc(Br)cc2)c1 (stereo not drawn)", "Meas Value": "< 6.00"}
{"Molecule": "COc1ccc(C(CC(=O)O)NC(=O)NNC(=O)CCCCNc2cc(C)ccn2)cc1 (stereo not drawn)", "Meas Value": "< 5.00"}
{"Molecule": "Cc1ccnc(NCCCCC(=O)NNC(=O)NC(CC(=O)O)c2cc(Cl)cc(Cl)c2)c1 (stereo not drawn)", "Meas Value": "< 5.00"}
{"Molecule": "Cc1ccnc(NCCCCC(=O)NNC(=O)NC(CC(=O)O)c2ccc(F)cc2)c1 (stereo not drawn)", "Meas Value": "< 5.00"}
{"Molecule": "NC(=O)C(CC(=O)O)NC(=O)NNC(=O)c1cccc(N=C(N)N)c1 (stereo not drawn)", "Meas Value": "< 5.00"}
{"Molecule": "N=C(N)Nc1cccc(C(=O)NNC(=O)CC(CC(=O)O)c2ccc(Cl)cc2)c1 (stereo not drawn)", "Meas Value": "< 6.00"}

----------
# Target Under Test: Integrin alpha-IIb/beta-3 (Homo sapiens, UniProt P05106+P08514)
# Assay Comment: Inhibitory activity against alpha IIb beta 3 integrin
IC50 values by entry
Value Type: IC50

{"Compound": "COc1ccc(C(CC(=O)O)CC(=O)NNC(=O)CCCCNc2cc(C)ccn2)cc1 (stereo not given)", "Target Under Test": "Integrin alpha-IIb/beta-3 (Homo sapiens, UniProt P05106+P08514)", "Value Type": "IC50", "Meas Value": "> 10000 nM"}
{"Compound": "CC(=N)Nc1cccc(C(=O)NNC(=O)CC(CC(=O)O)c2ccccc2)c1 (stereo not given)", "Target Under Test": "Integrin alpha-IIb/beta-3 (Homo sapiens, UniProt P05106+P08514)", "Value Type": "IC50", "Meas Value": "> 10000 nM"}
{"Compound": "COc1ccc(C(CC(=O)O)CC(=O)NNC(=O)c2cccc(NC(=N)N)c2)cc1 (stereo not given)", "Target Under Test": "Integrin alpha-IIb/beta-3 (Homo sapiens, UniProt P05106+P08514)", "Value Type": "IC50", "Meas Value": "> 1000 nM"}
{"Compound": "NC(N)=Nc1cccc(C(=O)NNC(=O)NC(CC(=O)O)c2cc(Cl)cc(Cl)c2)c1 (stereo not given)", "Target Under Test": "Integrin alpha-IIb/beta-3 (Homo sapiens, UniProt P05106+P08514)", "Value Type": "IC50", "Meas Value": "> 1000 nM"}
{"Compound": "N=C(N)Nc1cccc(C(=O)NNC(=O)CC(CC(=O)O)c2ccc(F)cc2)c1 (stereo not given)", "Target Under Test": "Integrin alpha-IIb/beta-3 (Homo sapiens, UniProt P05106+P08514)", "Value Type": "IC50", "Meas Value": "> 1000 nM"}

Where these numbers come from: ChEMBL document CHEMBL1134450
